This listing pairs variants with measured abundance fitness.
B1: Ankyrin-3, residues 4094 to 4171; numbered along this chain, Q12955 (parent)
chain: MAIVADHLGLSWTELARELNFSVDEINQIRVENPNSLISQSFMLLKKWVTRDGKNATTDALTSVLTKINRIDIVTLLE

# Variants of: B1
# assay summary: abundance fitness (aPCA) (normalised: wild type 0, dead -1); higher = more abundant; growth selection in yeast, the domain comes from the species named
# measurement setup: Homo sapiens
Keep it simple and answer with nothing but the number.

# example entries with known answers
N69G; 0.073
E14Q; -0.02
K54R; -0.064
R70K; -0.393

Would you kindly look at the next entry?
So, `H7K` ? Its abundance fitness was -0.016
